Test system: Escherichia coli TOP10
ASSAY_OVERVIEW: shrunken log2 fold change of peptide-encoding DNA abundance (4.5 h post-induction vs induction); higher = less antimicrobial activity (less host growth inhibition)
EXPERIMENTAL_SETUP: time post-induction: 4.5 h; library: site-saturation at positions 5, 18, 19, 20
Category | rule: reported shrunken log2 fold change within range, see lowest (below -0.06), middle (-0.06 to below 0.05), highest (0.05 or more)

Recorded results for 10 sequences are shown here.
Exercise: Band of "RRIRNRPPRLPRPRPRPPATPRP" ?
Key: highest

Exercise: Moving on to the next sequence: "RRIRCRPPRLPRPRPRPYEDPRP"
Key: middle

Exercise: Moving on to the next sequence: "RRIRTRPPRLPRPRPRPPWYPRP"
Key: lowest

Exercise: Moving on to the next sequence: "RRIRRRPPRLPRPRPRPDQKPRP"
Key: middle

Exercise: Moving on to the next sequence: "RRIRRRPPRLPRPRPRPITHPRP"
Key: lowest

Exercise: Moving on to the next sequence: "RRIRQRPPRLPRPRPRPASNPRP"
Key: middle

Exercise: Moving on to the next sequence: "RRIRVRPPRLPRPRPRPVPRPRP"
Key: middle

Exercise: Moving on to the next sequence: "RRIRKRPPRLPRPRPRPMSCPRP"
Key: middle

Exercise: Moving on to the next sequence: "RRIRLRPPRLPRPRPRPWCRPRP"
Key: middle

Exercise: Moving on to the next sequence: "RRIRGRPPRLPRPRPRPDQGPRP"
Key: highest

Query sequence follows.
Exercise: Band of "RRIRWRPPRLPRPRPRPYHCPRP" ?
Key: lowest

###

System: Escherichia coli TOP10;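 further: peptides expressed intracellularly from a pBAD plasmid library in pooled LB shake-flask culture, induced with 0.3% L-arabinose, DNA abundance read by NGS, three biological replicates, DESeq2 with apeglm shrinkage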
ASSAY_OVERVIEW: shrunken log2 fold change of peptide-encoding DNA abundance (4.5 h post-induction vs induction); higher = less antimicrobial activity (less host growth inhibition)
EXPERIMENTAL_SETUP: time post-induction: 4.5 h; library: site-saturation at positions 5, 18, 19, 20
Label scheme for shrunken log2 fold change: lower than -0.01 is FALSE, -0.01 and above is TRUE.

Recorded results for 8 sequences are shown here.
Exercise: Could you verify whether the entry "RRIRRRPPRLPRPRPRPFKNPRP" shows shrunken log2 fold change of no less than -0.01?
Key: TRUE

Exercise: Moving on to the next sequence: "RRIRVRPPRLPRPRPRPFWFPRP"
Key: TRUE

Exercise: Moving on to the next sequence: "RRIRKRPPRLPRPRPRPYKWPRP"
Key: TRUE

Exercise: Moving on to the next sequence: "RRIRVRPPRLPRPRPRPIVYPRP"
Key: FALSE

Exercise: Moving on to the next sequence: "RRIRKRPPRLPRPRPRPIYGPRP"
Key: TRUE

Exercise: Moving on to the next sequence: "RRIRWRPPRLPRPRPRPWPQPRP"
Key: TRUE

Exercise: Moving on to the next sequence: "RRIRRRPPRLPRPRPRPHLVPRP"
Key: TRUE

Exercise: Moving on to the next sequence: "RRIRWRPPRLPRPRPRPMWFPRP"
Key: FALSE

Next:
Exercise: Could you verify whether the entry "RRIRIRPPRLPRPRPRPTYEPRP" shows shrunken log2 fold change of no less than -0.01?
Key: FALSE

Exercise: Moving on to the next sequence: "RRIRQRPPRLPRPRPRPNEEPRP"
Key: TRUE

Exercise: Moving on to the next sequence: "RRIRGRPPRLPRPRPRPTNLPRP"
Key: FALSE

Exercise: Moving on to the next sequence: "RRIRVRPPRLPRPRPRPQCRPRP"
Key: FALSE

Exercise: Moving on to the next sequence: "RRIRRRPPRLPRPRPRPCYSPRP"
Key: TRUE

Exercise: Moving on to the next sequence: "RRIRWRPPRLPRPRPRPTQAPRP"
Key: TRUE
